assay: Radioactive metabolite screening in male CD-1 mouse urine by radiometric HPLC; type: in vivo, male CD-1 mice; details: male CD-1 mouse urine, 60 minutes post tail vein injection, n=3
Quantity name: 60 minutes (% parent in urine) (%)

• CC[C@H](C)[C@H](NC(=O)CCNC(=O)CN(CC(=O)O)C(=O)CCNC(=O)CN1CCC(CN2CCN3CCN(CC2)CC(=O)[O][Al]([F])[O]C(=O)C3)CC1)C(=O)N[C@H]1CCc2cccc3c2N(C1=O)[C@H](C(=O)NC1CC(=O)OC1O)C3 (some centres unmarked) [Compound ^18F-3-Al] = 100
• CC[C@H](C)[C@H](NC(=O)CCNC(=O)CCNC(=O)CN(CC(=O)O)C(=O)CN1CCC(CN2CCN3CCN(CC2)CC(=O)[O][Al]([F])[O]C(=O)C3)CC1)C(=O)N[C@H]1CCc2cccc3c2N(C1=O)[C@H](C(=O)NC1CC(=O)OC1O)C3 (some centres unmarked) [18F-5-Al] = 100
• CC[C@H](C)[C@H](NC(=O)CCNC(=O)CCNC(=O)[C@@H](CCC(=O)O)NC(=O)CN1CCC(CN2CCN3CCN(CC2)CC(=O)[O][Al]([F])[O]C(=O)C3)CC1)C(=O)N[C@H]1CCc2cccc3c2N(C1=O)[C@H](C(=O)NC1CC(=O)OC1O)C3 (some centres unmarked) [Compound ^18F-1-Al] = 100
• CC[C@H](C)[C@H](NC(=O)COCCNC(=O)[C@@H](CCC(=O)O)NC(=O)[C@@H](CCC(=O)O)NC(=O)CN1CCC(CN2CCN3CCN(CC2)CC(=O)[O][Al]([F])[O]C(=O)C3)CC1)C(=O)N[C@H]1CCc2cccc3c2N(C1=O)[C@H](C(=O)NC1CC(=O)OC1O)C3 (some centres unmarked) [Compound ^18F-4-Al] = 100
• CC[C@H](C)[C@H](NC(=O)CCNC(=O)CC[C@H](NC(=O)CN1CCC(CN2CCN3CCN(CC2)CC(=O)[O][Al]([F])[O]C(=O)C3)CC1)C(=O)O)C(=O)N[C@H]1CCc2cccc3c2N(C1=O)[C@H](C(=O)NC1CC(=O)OC1O)C3 (some centres unmarked) [18F-6-Al] = 66.3
